biological target: ENPP-1 ECD (Homo sapiens (Human), UniProt P22413); test: Assay 2: inhibition of ENPP1 hydrolysis of 2′,3′-cGAMP (AMP-Glo, […] enzyme); conditions: Assay 2 (KI), ENPP1 hydrolysis of 2′,3′-cGAMP, AMP-Glo, […] ENPP-1, 24 μM cGAMP
Sequence (P22413 98-925): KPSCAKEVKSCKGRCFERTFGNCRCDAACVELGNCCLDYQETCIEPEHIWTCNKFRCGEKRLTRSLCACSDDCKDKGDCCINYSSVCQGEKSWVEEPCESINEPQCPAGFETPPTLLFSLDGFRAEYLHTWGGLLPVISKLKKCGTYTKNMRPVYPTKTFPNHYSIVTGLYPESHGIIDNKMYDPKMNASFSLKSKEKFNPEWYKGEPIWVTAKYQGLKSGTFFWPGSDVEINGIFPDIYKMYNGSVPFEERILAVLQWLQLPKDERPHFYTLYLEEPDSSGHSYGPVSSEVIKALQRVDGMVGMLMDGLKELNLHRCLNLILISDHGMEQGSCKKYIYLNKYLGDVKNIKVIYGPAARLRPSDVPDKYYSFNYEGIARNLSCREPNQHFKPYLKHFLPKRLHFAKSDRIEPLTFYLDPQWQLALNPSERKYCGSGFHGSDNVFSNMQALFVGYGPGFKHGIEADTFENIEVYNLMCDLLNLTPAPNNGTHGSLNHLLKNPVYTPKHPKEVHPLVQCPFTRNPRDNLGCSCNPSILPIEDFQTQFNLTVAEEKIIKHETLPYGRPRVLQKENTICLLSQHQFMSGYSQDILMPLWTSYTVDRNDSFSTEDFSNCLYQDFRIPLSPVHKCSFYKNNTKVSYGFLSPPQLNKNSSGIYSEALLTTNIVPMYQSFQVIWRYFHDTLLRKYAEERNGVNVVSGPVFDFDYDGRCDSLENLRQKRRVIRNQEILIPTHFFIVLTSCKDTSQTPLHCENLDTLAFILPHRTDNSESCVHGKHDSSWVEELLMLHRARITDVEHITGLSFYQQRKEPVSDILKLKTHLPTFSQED
measurement.type: Ki

- compound: "COc1cc2ncnc(N3CCC4(CC3)CCN(S(=N)(=O)C3CC3)C4)c2cc1OC (stereo not drawn)"
  Ki: "< 3 nM"

## Task Ki lookup needed for COc1cc2ncnc(N3CCC4(CC3)CCN(S(C)(=N)=O)C4)c2cc1OC (stereo not drawn) , thanks.
## Result < 3 nM

## Task For COc1cc2nccc(N3CCC4(CC3)CCN(S(C)(=N)=O)C4)c2cc1Cl (stereo not drawn) then?
## Result < 3 nM

## Task Continue with COc1cc2nccc(Oc3ccc(S(C)(=N)=O)cc3)c2cc1Cl (stereo not drawn)
## Result 3 to 300 nM

## Task Next entry: COc1cc2ncnc(N3CCC(CS(C)(=N)=O)CC3)c2cc1OC (stereo not drawn)
## Result 3 to 300 nM

## Task Next entry: COc1cc2nccc(Oc3ccc(S(C)(=N)=O)cc3)c2cc1F (stereo not drawn)
## Result < 3 nM

## Task Can you check COc1cccc2c(Oc3ccc(S(C)(=N)=O)cc3)ncnc12 (stereo not drawn) next?
## Result 3 to 300 nM

## Task Input CS(=N)(=O)c1ccc(Oc2cnnc3ccccc23)cc1 (stereo not drawn)
## Result > 300 nM

## Task Try the compound COc1ccc2c(Oc3ccc(S(C)(=N)=O)cc3)ccnc2n1 (stereo not drawn)
## Result 3 to 300 nM

====

molecular target: ENPP-1 ECD (Homo sapiens (Human), UniProt P22413); assay: Assay 1: inhibition of ENPP1 hydrolysis of 2′,3′-cGAMP (AMP-Glo, […] enzyme); details: Assay 1 (IC50), inhibition of ENPP1 hydrolysis of 2′,3′-cGAMP; no unit in Table 18 (Table 17 legend for this assay uses nM)
measurement.type: IC50

See these solved cases before continuing.
- molecule: "COc1cc2ncnc(N3CCC(CNS(C)(=N)=O)CC3)c2cc1OC (stereo not drawn)"
  IC50: "6.6 nM"
- molecule: "COc1ccc2c(-c3ccc(CNS(C)(=N)=O)cc3)ccnc2c1 (stereo not drawn)"
  IC50: "40 nM"
- molecule: "COc1cc2ncnc(N3CCC(CCS(C)(=N)=O)CC3)c2cc1OC (stereo not drawn)"
  IC50: "4.1 nM"
- molecule: "COc1cccc2c(N3CCC(CCS(C)(=N)=O)CC3)ncnc12 (stereo not drawn)"
  IC50: "120 nM"

## Task Query: IC50; subject: COc1ccc2c(OCc3ccc(S(C)(=N)=O)cc3F)ccnc2c1 (stereo not drawn)
## Result 7.8 nM

## Task Also COc1cnc2c(Oc3ccc(S(C)(=N)=O)cc3)ccnc2c1 (stereo not drawn) ?
## Result 23000 nM

## Task Okay, and CS(=N)(=O)c1ccc(Oc2c(C#N)cnc3cc(F)ccc23)cc1 (stereo not drawn) ?
## Result > 30000 nM

## Task Repeat for the following molecule: CS(=N)(=O)c1ccc(Oc2cnnc3ccccc23)cc1 (stereo not drawn)
## Result 1200 nM

====

target: UniProt P22413; experiment: Assay 2: inhibition of ENPP1 hydrolysis of 2′,3′-cGAMP (AMP-Glo, […] enzyme); conditions: Assay 2 (KI), ENPP1 hydrolysis of 2′,3′-cGAMP, AMP-Glo, […] ENPP-1, 24 μM cGAMP
measurement.type: Ki

- molecule: "COc1ccc2c(N3CCC4(CC3)CCN(S(C)(=N)=O)C4)ccnc2n1 (stereo not shown)"
  Ki: "< 3 nM"
- molecule: "COc1cc2ncc(C#N)c(N3CCC(CCS(C)(=N)=O)CC3)c2cc1OC (stereo not shown)"
  Ki: "< 3 nM"
- molecule: "COc1ccc2c(Oc3ccc(S(=N)(=O)CC(C)(C)O)cc3)ccnc2c1 (stereo not shown)"
  Ki: "< 3 nM"
- molecule: "COc1cc2ncnc(OCC3CCN(S(C)(=N)=O)CC3)c2cc1OC (stereo not shown)"
  Ki: "3 to 300 nM"
- molecule: "COc1cccc2c(N3CCC(CCS(C)(=N)=O)CC3)ncnc12 (stereo not shown)"
  Ki: "3 to 300 nM"

Next item in the queue.
## Task Given COc1ccc2c(N3CCC(CS(C)(=N)=O)CC3)ccnc2c1 (stereo not shown) , state its recorded Ki.
## Result 3 to 300 nM
